Experimental System: mouse HCN1 (mHCN1) (Mus musculus, UniProt O88704)
Construct: full-length wild-type cDNA in pGH19, cRNA expressed in Xenopus laevis oocytes; homotetrameric channel
Sequence (O88704 whole entry): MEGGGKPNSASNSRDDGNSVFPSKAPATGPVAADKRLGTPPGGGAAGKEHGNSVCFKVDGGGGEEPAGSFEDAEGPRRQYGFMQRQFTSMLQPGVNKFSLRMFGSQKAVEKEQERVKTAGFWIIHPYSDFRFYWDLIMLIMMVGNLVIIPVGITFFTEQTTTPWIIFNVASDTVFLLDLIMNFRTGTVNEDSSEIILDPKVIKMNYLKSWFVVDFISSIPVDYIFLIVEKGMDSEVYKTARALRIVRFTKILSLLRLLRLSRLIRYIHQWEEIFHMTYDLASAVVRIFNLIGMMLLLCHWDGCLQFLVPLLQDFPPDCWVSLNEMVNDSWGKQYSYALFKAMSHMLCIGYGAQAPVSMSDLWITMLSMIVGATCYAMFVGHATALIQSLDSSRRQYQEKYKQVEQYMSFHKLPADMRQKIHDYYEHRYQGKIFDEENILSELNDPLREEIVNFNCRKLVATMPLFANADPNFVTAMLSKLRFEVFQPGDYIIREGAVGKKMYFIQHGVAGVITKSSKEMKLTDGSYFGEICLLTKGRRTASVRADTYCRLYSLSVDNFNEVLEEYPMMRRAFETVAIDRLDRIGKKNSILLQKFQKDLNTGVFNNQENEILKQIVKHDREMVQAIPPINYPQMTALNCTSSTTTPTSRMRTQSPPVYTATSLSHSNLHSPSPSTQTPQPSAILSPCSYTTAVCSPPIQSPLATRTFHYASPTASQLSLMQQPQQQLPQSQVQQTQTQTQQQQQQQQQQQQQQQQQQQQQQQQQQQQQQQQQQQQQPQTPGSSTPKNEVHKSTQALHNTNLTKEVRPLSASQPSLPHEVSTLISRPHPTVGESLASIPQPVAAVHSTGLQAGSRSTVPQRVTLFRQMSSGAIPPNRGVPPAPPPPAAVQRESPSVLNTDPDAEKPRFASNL
Assay Name: two-electrode voltage clamp, Xenopus oocytes, Hill fit of current
Condition Details: read-out: relative IC50
Value Type: pIC50
Conceptually, pIC50 converts a concentration in mol/L into minus its log10.

Inquiry: Give its pIC50 value. Item: CCCCCc1cc(O)c2c(c1)OC(C)(C)[C@@H]1CCC(C)=C[C@@H]21 [Δ9-tetrahydrocannabinol]
Reply text: 4.66
